# target or system: ER (Homo sapiens)
# Construct: host or cells: T47D and MCF7 human breast cancer cells
# procedure text: ER degradation activity, in-cell western blot analysis in T47D cells
# Format: cell-based
# measurement parameters: 16 hours, Table A does not say which cell line (T47D or MCF7), read-out: Potency (DC50)
For each of the molecules below, state its DC50.

// Input: C[C@@H]1Cc2c([nH]c3ccccc23)[C@@H](c2c(F)cc(C3CCC(C(=O)N4CC(N5Cc6cc7c(cc6C5)C(=O)N(C5CCC(=O)NC5=O)C7=O)C4)CC3)cc2F)N1CC(F)F (stereo partly drawn) [E249] . Output its DC50 only.
> 100 nM

Give reported DC50 value for CCC(=C(c1ccc(O)cc1)c1ccc(N2CCC3(CCN(C(=O)CN4Cc5cc6c(cc5C4)C(=O)N(C4CCC(=O)NC4=O)C6=O)CC3)CC2)cc1)c1ccccc1 (stereo not drawn) [E 188]
10 to 100 nM

Give a short answer stating reported DC50 for O=C1CCC(N2C(=O)c3cc4c(cc3C2=O)CN(C(=O)CN2CCC3(CC2)CCN(c2ccc([C@@H]5c6ccc(O)cc6CC[C@@H]5c5ccc(F)cc5)cc2)C3)C4)C(=O)N1 (mixture of isomers) [E 152] .
> 100 nM

* * *

# target or system: ER (Homo sapiens, UniProt P03372)
# Construct: host or cells: T47D and MCF7 human breast cancer cells
# procedure text: ER degradation activity, in-cell western blot analysis in T47D cells
# Format: cell-based
# measurement parameters: 16 hours, Table A does not say which cell line (T47D or MCF7), read-out: Potency (DC50)
quantity measured: DC50

For the compound C[C@@H]1Cc2c([nH]c3ccccc23)[C@@H](c2c(F)cc(N3CCC4(CCN(C(=O)CN5Cc6cc7c(cc6C5)C(=O)N(C5CCC(=O)NC5=O)C7=O)CC4)CC3)cc2F)N1CC(C)(F)F (some centres unmarked) [E 253] , report DC50.
< 10 nM

For the compound C[C@@H]1Cc2c([nH]c3ccccc23)[C@@H](c2ccc(N3CCC(C(=O)N4CCC(N5Cc6cc7c(cc6C5)C(=O)N(C5CCC(=O)NC5=O)C7=O)CC4)CC3)cc2)N1CC(F)F (some centres unmarked) [E 263] , report DC50.
10 to 100 nM

Tell me DC50 reported for C[C@@H]1Cc2c([nH]c3ccccc23)[C@@H](c2c(F)cc(N3CCC(N4CCC(CC(=O)N5Cc6cc7c(cc6C5)C(=O)N(C5CCC(=O)NC5=O)C7)CC4)CC3)cc2F)N1CC(F)F (some centres unmarked) [E 94]
< 10 nM

// Input: O=C1CCC(N2C(=O)c3cc4c(cc3C2=O)CN(CC(=O)N2CC3(CCN(c5ccc(C(=C(CCCl)c6ccccc6)c6ccc(O)cc6)cc5)CC3)C2)C4)C(=O)N1 (centres unmarked) [E 187] . Output its DC50 only.
10 to 100 nM

Give a short answer stating reported DC50 for O=C1CCC(N2C(=O)c3cc4c(cc3C2=O)CN(CC(=O)N2CCC3(CC2)CCN(c2c(F)cc([C@@H]5c6ccc(O)cc6CC[C@@H]5c5ccccc5)cc2F)CC3)C4)C(=O)N1 (mixture of isomers) [E 175] .
> 100 nM

Give the value of DC50 reported for the following: O=C1CCC(N2C(=O)c3cc4c(cc3C2=O)CN(CC(=O)N2CC3(CCC(Oc5ccc([C@@H]6c7ccc(O)cc7CC[C@@H]6c6ccccc6)cc5)CC3)C2)C4)C(=O)N1 (some centres unmarked) [E 223]
> 100 nM

Given C[C@@H]1Cc2cc(O)ccc2[C@@H](c2ccc(C3CCC(C(=O)N4CCC(N5Cc6cc7c(cc6C5)C(=O)N(C5CCC(=O)NC5=O)C7=O)CC4)CC3)cc2F)N1CC(F)F (some centres unmarked) [E 317] , respond with its DC50.
10 to 100 nM

Note down DC50 recorded for C[C@@H]1Cc2c([nH]c3ccccc23)[C@@H](c2c(F)cc(N3CC4(CCN(CC(=O)N5Cc6cc7c(cc6C5)C(=O)N(C5CCC(=O)NC5=O)C7=O)C4)C3)cc2F)N1CC(F)F (some centres unmarked) [E 74]
10 to 100 nM

// Input: C[C@@H]1Cc2c([nH]c3ccccc23)[C@@H](c2c(F)cc(N3CC(CC(=O)N4CC(N5Cc6cc7c(cc6C5)C(=O)N(C5CCC(=O)NC5=O)C7)C4)C3)cc2F)N1CC(F)F (some centres unmarked) [E 103] . Output its DC50 only.
10 to 100 nM

Provide only the value of recorded DC50 for O=C1CCC(N2C(=O)c3cc4c(cc3C2=O)CN(C(=O)CN2CCC3(CC2)CCN(c2ccc([C@@H]5c6ccc(O)cc6CC[C@@H]5c5ccccc5)cc2)CC3)CC4)C(=O)N1 (mixture of isomers) [E 161]
> 100 nM

Tell me measured DC50 for C[C@@H]1Cc2cc(O)ccc2[C@@H](c2c(F)cc(N3CCC(N4CCC(C(=O)N5Cc6cc7c(cc6C5)C(=O)N(C5CCC(=O)NC5=O)C7)CC4)CC3)cc2F)N1CC(C)(F)F (some centres unmarked) [E 30] please.
> 100 nM

Respond only with DC50 recorded for O=C1CCC(N2C(=O)c3cc4c(cc3C2=O)CN(CC(=O)N2CCC3(C2)CN(c2ccc([C@@H]5c6ccc(O)cc6CC[C@@H]5c5ccccc5)cc2)C3)C4)C(=O)N1 (mixture of isomers) [E 17]
10 to 100 nM

Report measured DC50; entry is O=C1CCC(N2C(=O)c3cc4c(cc3C2=O)CN(CCN2CCC3(CC2)CCN(c2ccc([C@@H]5c6ccc(O)cc6CC[C@@H]5c5ccccc5)cc2)CC3)C4)C(=O)N1 (mixture of isomers) [E 268]
10 to 100 nM

Identify measured DC50 corresponding to C[C@@H]1Cc2c([nH]c3ccccc23)[C@@H](c2c(F)cc(N3CCC(C(=O)N4CCC(N5Cc6cc7c(cc6C5)C(=O)N(C5CCC(=O)NC5=O)C7=O)CC4)CC3)cc2F)N1CC(F)F (some centres unmarked) [E 114]
< 10 nM

Identify DC50 associated with the compound O=C1CCC(N2C(=O)c3cc4c(cc3C2=O)CCN(C(=O)CN2CC3(CCN(c5ccc([C@@H]6c7ccc(O)cc7CC[C@@H]6c6ccccc6)cc5)CC3)C2)CC4)C(=O)N1 (some centres unmarked) [E 170]
> 100 nM

Identify measured DC50 associated with O=C1CCC(N2C(=O)c3cc4c(cc3C2=O)CN(CC(=O)N2CCC3(CC2)CCN(c2ccc(C(=C(CCCl)c5ccccc5)c5ccc(O)cc5)cc2)C3)C4)C(=O)N1 (centres unmarked) [E 190]
10 to 100 nM

Dear colleague, please send me the reported DC50 for O=C1CCC(N2C(=O)c3cc4c(cc3C2=O)CN(C(=O)[C@H]2CC[C@@H](CN3CC(Nc5ccc([C@@H]6c7ccc(O)cc7CC[C@@H]6c6ccccc6)cc5)C3)CC2)C4)C(=O)N1 (some centres unmarked) [E 364] when you can.
10 to 100 nM

Quick one: give measured DC50 for C[C@@H]1Cc2c([nH]c3ccccc23)[C@@H](c2c(F)cc(N3CCC(CN4CCC5(CC4)CC(N4Cc6cc7c(cc6C4)C(=O)N(C4CCC(=O)NC4=O)C7=O)C5)CC3)cc2F)N1CC(F)F (some centres unmarked) [E 132]
10 to 100 nM

Please report DC50 for the following compound: C[C@@H]1Cc2c([nH]c3ccccc23)[C@@H](c2c(F)cc(N3CCC(N4CC(C(=O)N5Cc6cc7c(cc6C5)C(=O)N(C5CCC(=O)NC5=O)C7)C4)CC3)cc2F)N1CC(F)F (some centres unmarked) [E 120]
10 to 100 nM

Provide DC50 value for the following compound: C[C@@H]1Cc2c([nH]c3ccccc23)[C@@H](c2c(F)cc(N3CC4(CN(C(=O)CN5Cc6cc7c(cc6C5)C(=O)N(C5CCC(=O)NC5=O)C7)C4)C3)cc2F)N1CC(F)F (some centres unmarked) [E 71]
< 10 nM
